Values from ChEMBL document CHEMBL1961873

The molecules listed here are annotated with their inhibition.
Target: Protein-tyrosine kinase 6 (Homo sapiens)
Settings: at 1 µM
Description: GSK_PKIS: BRK mean inhibition at 1 uM [Nanosyn]
// units = %; emit number, no label

>  <molecule>
NC(=O)c1ccc2c(-c3ccnc(NCCCO)n3)c(-c3ccc(F)cc3)nn2c1

>  <tested_on>
Protein-tyrosine kinase 6 (Homo sapiens)

>  <inhibition [%]>
17.1

$$$$

GET /value?item= COc1cc(Nc2ncc(-c3ccccc3)o2)cc(OC)c1 &field=inhibition returns 7.86

Measured inhibition of COc1c(C(N)=O)cc(-c2ccc(Cl)cc2)cc1-c1ccc(S(N)(=O)=O)cc1 : 4.09

Reported inhibition for COC(=O)Nc1nc2ccc(Oc3ccc(NC(=O)Nc4cc(C(F)(F)F)ccc4F)cc3)cc2s1 was 0.36

Input CC1=C(C(=O)Nc2ccc3[nH]ncc3c2)C(c2ccc(F)cc2)N=C(c2ccc(C(F)(F)F)nc2)N1 (stereo not given) . Output inhibition: 3.49

* * *

Molecular target: Glycogen synthase kinase-3 alpha (Homo sapiens);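 note: values are mean inhibition of GSK3A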
Conditions: at 0.1 µM
reported_property: inhibition (%)
Dear colleague, please return just the value in %, with no unit written.

Consider the following illustrative entries.
>  <molecule>
CCCNc1cccc(-n2ncc3c(N/N=C/c4ccncc4)ncnc32)c1

>  <reported_property>
inhibition

>  <unit_annotation>
%

>  <observed_measurement>
31.9

$$$$
>  <molecule>
CS(=O)(=O)CCNCc1ccc(-c2ccc3ncnc(Nc4ccc(OCc5cccc(C(F)(F)F)c5)cc4)c3c2)o1

>  <reported_property>
inhibition

>  <unit_annotation>
%

>  <observed_measurement>
2.81

$$$$
>  <molecule>
COc1ccc(Nc2ncc(-c3ccccc3)o2)cc1OC

>  <reported_property>
inhibition

>  <unit_annotation>
%

>  <observed_measurement>
8.4

$$$$
>  <molecule>
CC(C)c1ccc(-c2cc(-c3c[nH]nc3-c3ccccn3)ccn2)cc1

>  <reported_property>
inhibition

>  <unit_annotation>
%

>  <observed_measurement>
0.61

$$$$
>  <molecule>
NS(=O)(=O)c1ccc(N/N=C2\C(=O)Nc3cccc(CCc4ccncc4)c32)cc1

>  <reported_property>
inhibition

>  <unit_annotation>
%

>  <observed_measurement>
49.5

$$$$
>  <molecule>
COc1cc(Nc2ncc(-c3ccccc3)o2)cc(OC)c1

>  <reported_property>
inhibition

>  <unit_annotation>
%

>  <observed_measurement>
3.75

$$$$
>  <molecule>
CNC(=O)c1ncccc1Nc1nc(Nc2cc3c(cc2OC)CCCN3C(=O)CN(C)C)nc2[nH]ccc12

>  <reported_property>
inhibition

>  <unit_annotation>
%

>  <observed_measurement>
7.2

$$$$
>  <molecule>
COc1cccc(-n2ncc3c(N/N=C/c4ccc(C(=O)NCCN(C)C)cc4)ncnc32)c1

>  <reported_property>
inhibition

>  <unit_annotation>
%

>  <observed_measurement>
71.9

$$$$

Please fill in: inhibition reported for CCS(=O)(=O)c1ccc(OC)c(Nc2ncc(-c3cccc(F)c3)o2)c1 = 2.67

inhibition for COC(=O)Nc1nc2cc(Oc3ccc(NC(=O)Nc4ccccc4)cc3)ccc2[nH]1 is 4.23

* * *

Biological target: Fibroblast growth factor receptor 1 (Homo sapiens) (UniProt P11362);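 note: values are reported as mean percent inhibition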
Sequence (P11362 22-822 limits assumed): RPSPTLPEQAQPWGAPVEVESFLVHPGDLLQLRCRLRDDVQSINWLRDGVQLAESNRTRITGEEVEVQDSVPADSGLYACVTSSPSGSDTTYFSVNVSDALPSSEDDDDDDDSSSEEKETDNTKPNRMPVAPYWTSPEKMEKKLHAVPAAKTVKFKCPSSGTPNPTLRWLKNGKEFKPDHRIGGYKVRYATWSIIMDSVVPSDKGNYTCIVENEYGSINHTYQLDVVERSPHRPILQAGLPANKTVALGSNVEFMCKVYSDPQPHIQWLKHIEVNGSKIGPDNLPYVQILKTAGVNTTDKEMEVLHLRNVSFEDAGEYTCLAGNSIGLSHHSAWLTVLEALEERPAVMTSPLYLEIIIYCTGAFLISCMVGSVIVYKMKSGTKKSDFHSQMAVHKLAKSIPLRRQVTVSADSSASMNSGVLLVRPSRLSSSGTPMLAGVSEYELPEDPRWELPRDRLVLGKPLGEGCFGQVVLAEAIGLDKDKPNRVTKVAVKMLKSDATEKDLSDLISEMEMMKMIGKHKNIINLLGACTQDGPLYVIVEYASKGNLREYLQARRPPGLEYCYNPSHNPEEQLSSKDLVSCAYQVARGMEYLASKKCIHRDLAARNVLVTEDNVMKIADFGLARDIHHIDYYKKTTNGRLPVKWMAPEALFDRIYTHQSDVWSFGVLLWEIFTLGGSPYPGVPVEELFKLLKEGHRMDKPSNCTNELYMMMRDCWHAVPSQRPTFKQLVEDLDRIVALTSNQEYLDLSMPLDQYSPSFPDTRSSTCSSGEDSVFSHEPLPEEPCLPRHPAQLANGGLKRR
Conditions: at 0.1 µM
reported_property: inhibition (%)
// units = %; emit number, no label

Some solved entries appear below for comparison.
>  <compound>
N#Cc1ccc2c(-c3ccnc(NC4CC4)n3)c(-c3ccc(F)cc3)nn2c1

>  <reported_property>
inhibition

>  <unit_annotation>
%

>  <observed_measurement>
-2.46

$$$$
>  <compound>
O=C1Nc2ccccc2/C1=C1\CCc2cc(O)ccc21

>  <reported_property>
inhibition

>  <unit_annotation>
%

>  <observed_measurement>
8.16

$$$$
>  <compound>
COC(=O)Nc1nc2ccc(Oc3ccc(NC(=O)Nc4cc(C(F)(F)F)ccc4F)cc3)cc2s1

>  <reported_property>
inhibition

>  <unit_annotation>
%

>  <observed_measurement>
4.86

$$$$
>  <compound>
Cc1nnc(-c2cccc(-c3ccc(C(=O)NCC4CC4)cc3)c2)o1

>  <reported_property>
inhibition

>  <unit_annotation>
%

>  <observed_measurement>
2.64

$$$$
>  <compound>
NC(=O)c1ccc2c(-c3ccnc(NCCCO)n3)c(-c3ccc(F)cc3)nn2c1

>  <reported_property>
inhibition

>  <unit_annotation>
%

>  <observed_measurement>
8.04

$$$$

Let's switch to this compound now.
inhibition measured on CCn1c(-c2nonc2N)nc2cncc(C(=O)NCCNC)c21 = 2.05
